Numbers sourced from patent US7056907B2.

Tested on: pooled normal human citrated plasma
Assay: Test D: Determination of Activated Partial Thromboplastin Time (APTT)
Assay type: biochemical
Settings: read-out: IC50 APTT (concentration of inhibitor in human plasma that doubles the Activated Partial Thromboplastin Time)
Protocol: Determination of Activated Partial Thromboplastin Time (APTT) APTT is determined in pooled normal human citrated plasma with the reagent PTT Automated 5 manufactured by Stago. […] The clotting time is expressed as absolute values (seconds) as well as the ratio of APTT without inhibitor (APTT0) to APTT with inhibitor (APTTi). […]
MEASUREMENT KIND: IC50

Fill blank: measured IC50 of the compound `N=C(N)c1cc(F)c(CNC(=O)[C@@H]2CCN2C(=O)[C@H](O)c2cc(Cl)cc(OC(F)F)c2)c(F)c1` is ____. < 1 µM
